Collected self-splicing fitness (ln) values appear next to each entry.
# test protocol: self-splicing fitness, log relative to wild type (ln ratio); higher = more splicing; Tetrahymena group I intron in knt gene, E. coli kanamycin selection, DiMSum; sequences stand for … in CUCUCU…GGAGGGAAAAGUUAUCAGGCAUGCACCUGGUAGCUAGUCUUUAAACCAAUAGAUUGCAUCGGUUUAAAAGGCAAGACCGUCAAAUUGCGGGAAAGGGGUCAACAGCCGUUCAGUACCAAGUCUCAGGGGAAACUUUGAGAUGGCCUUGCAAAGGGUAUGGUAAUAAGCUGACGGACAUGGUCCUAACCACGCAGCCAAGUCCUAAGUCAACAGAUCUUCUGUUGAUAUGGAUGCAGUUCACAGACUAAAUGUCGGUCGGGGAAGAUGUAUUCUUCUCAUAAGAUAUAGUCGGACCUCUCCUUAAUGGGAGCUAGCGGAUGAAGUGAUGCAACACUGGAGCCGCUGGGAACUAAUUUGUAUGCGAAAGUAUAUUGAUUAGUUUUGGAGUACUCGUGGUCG;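 also: selection with 25 µg/mL kanamycin versus none on LB agar overnight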
# assay conditions: 37 °C

sequence chain: AGAAAGCAAUAUUACGGGGC
recorded metric: self-splicing fitness (ln)
recorded measurement: -2.05
--
sequence chain: UUCAAGCAAUAUUACGGAUA
recorded metric: self-splicing fitness (ln)
recorded measurement: -0.384
--
sequence chain: CUUAAGCAAUAUUACGGUUG
recorded metric: self-splicing fitness (ln)
recorded measurement: -1.3
--
sequence chain: ACAUAGCAAUAUUACGGUAC
recorded metric: self-splicing fitness (ln)
recorded measurement: -2.51
--
sequence chain: UCCGAGCAAUAUUACGUGUC
recorded metric: self-splicing fitness (ln)
recorded measurement: -2.64
--
sequence chain: AAGCAGCAAUAUUACGCCAG
recorded metric: self-splicing fitness (ln)
recorded measurement: -1.43

stdin: self-splicing fitness (ln) lookup needed for GGUGAGCAAUAUUACGCUCG , thanks.
stdout: -1.37

stdin: Again, but for AUUGAGCAAUAUUACGCUCU
stdout: -2.27

====

# test protocol: self-splicing fitness, log relative to wild type (ln ratio); higher = more splicing; Tetrahymena group I intron in knt gene, E. coli kanamycin selection, DiMSum; sequences stand for … in CUCUCU…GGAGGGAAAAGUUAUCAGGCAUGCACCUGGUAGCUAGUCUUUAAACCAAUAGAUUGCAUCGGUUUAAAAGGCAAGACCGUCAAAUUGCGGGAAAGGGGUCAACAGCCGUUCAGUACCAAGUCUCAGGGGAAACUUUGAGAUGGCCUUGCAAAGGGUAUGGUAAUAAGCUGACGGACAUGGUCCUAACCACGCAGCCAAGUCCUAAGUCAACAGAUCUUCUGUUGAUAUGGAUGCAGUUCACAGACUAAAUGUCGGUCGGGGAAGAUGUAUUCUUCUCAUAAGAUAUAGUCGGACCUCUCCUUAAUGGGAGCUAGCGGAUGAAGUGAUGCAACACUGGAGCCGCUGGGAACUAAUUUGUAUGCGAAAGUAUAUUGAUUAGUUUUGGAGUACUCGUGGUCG
# assay conditions: 37 °C
recorded metric: self-splicing fitness (ln)
In your answer, state the number alone without any accompanying words.

sequence chain: AACUAGCAAUAUUACGGGCG
recorded measurement: -0.0101
//
sequence chain: AGGGAGCAAUAUUACGAUUU
recorded measurement: -1.92
//
sequence chain: UUAGAGCAAUAUUACGUUGG
recorded measurement: -1.59

Then there is this sequence:
stdin: self-splicing fitness (ln) lookup needed for CUACAGCAAUAUUACGUGGA , thanks.
stdout: -3.11

Ref: the supplement of paper PMC7877785
